Test system: SK-OV-3 ovarian
assay: NCI-60 one-dose screen, 48 h
particulars: 10 µM unless noted
The panel holds about 83,000 compounds, 20% with a hit somewhere; the sample as a whole holds those more often. Active and inactive are the calls of the source. The calls were made as follows: active = growth percent below 10; inactive = the rest.
Bench note: report the call from Y = active, N = inactive

Consider the following illustrative entries.
{"compound": "C1=CC2(C=C1)OC21CCC2(C=CC3(C2)OC3C2CCCCC2)CC1 (stereo not given)", "tested on": "SK-OV-3 ovarian", "category label": "N"}
{"compound": "O=[N+]([O-])c1cc2c(ccc3occc32)o1", "tested on": "SK-OV-3 ovarian", "category label": "N"}
{"compound": "CC1CCCCN1CCCNC(=O)c1ccc2c(c1)sc1nc(-c3ccc(F)cc3)cn12 (stereo not given)", "tested on": "SK-OV-3 ovarian", "category label": "N"}
{"compound": "C#CCn1cc(C=C2C(=O)NC(=O)NC2=O)c2cc(Cl)ccc21", "tested on": "SK-OV-3 ovarian", "category label": "N"}
{"compound": "O=C(Nc1ccc(Br)cc1F)c1cc(F)ccc1O", "tested on": "SK-OV-3 ovarian", "category label": "Y"}
{"compound": "COCCN(C(=O)Cc1cccs1)C(C(=O)NCc1ccc(OC)cc1)c1ccc(C(C)C)cc1 (stereo not given)", "tested on": "SK-OV-3 ovarian", "category label": "N"}

Asked: For this compound, state the assay outcome: CC/C(=C(\CC)c1ccc(OCC[N+](C)(C)C)cc1)c1ccc(OC)cc1
Given back: N

Asked: For this compound, state the assay outcome: O=C(Nc1ccccc1O)c1ccc(-c2ccc(Cl)cc2Cl)o1
Given back: N

Data provenance: PubChem BioAssay (NCI)
